Measurement target: binding partner of C5A (XPA23)
Assay procedure: Biacore K-off
Measured endpoint: fold difference in affinity vs original (fold)
Output spec: scalar in fold, unitless text.

[[record]]
binder = "C5A (XPA23) VL S93V (antibody, V domains shown) VH: EVQLLESGGGLVQPGGSLRLSCAASGFTFSKYFMFWVRQAPGKGLEWVSVISPSGGMTRYADSVKGRFTISRDNSKNTLYLQMNSLRAEDTAVYYCARVGYGGNSDYWGQGTLVTVSS VL: DIQMTQSPSSVSASVGDRLTIICRASQDINRWLAWYQQTPGNAPKLLIHSATSLQSGVPSRFSGSGSGTDFTLTINSLQPEDFATYYCQQADVFPLTFGGGTKVEIK"
measured_endpoint = "fold difference in affinity vs original"
test_value = 3.81


Shift focus to the following entry.
Endpoint output: fold difference in affinity vs original of C5A (XPA23) VL S93Y (antibody, V domains shown) VH: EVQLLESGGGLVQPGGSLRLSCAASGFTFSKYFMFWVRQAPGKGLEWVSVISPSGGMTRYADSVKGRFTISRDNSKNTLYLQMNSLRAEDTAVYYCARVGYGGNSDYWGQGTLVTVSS VL: DIQMTQSPSSVSASVGDRLTIICRASQDINRWLAWYQQTPGNAPKLLIHSATSLQSGVPSRFSGSGSGTDFTLTINSLQPEDFATYYCQQADYFPLTFGGGTKVEIK . Value?
1.45
